test: Half life in rat at 10 mg/kg, po; format: ADME, organism-based; set-up: dose 10 mg/kg, route oral; settings: in vivo
Recorded endpoint: half-life

**Q:** Record request: half-life value, item CCc1cccc(CC)c1-c1cc(OC)c2c(n1)CCCC2Nc1cc(OC)ccc1C (stereo unspecified)
**A:** 5.3 h
